# System: 292921-168-R-J2-PDC KRAS tumor spheroid viability
# assay-remarks: Anticancer human tumor 292921-168-R-J2-PDC patient-derived pancreatic carcinoma cell line growth inhibition [KRAS2]
# condition-parameters: second compound 0.316 µM; first compound 10 µM; hits give low values; spheroids with HUVEC and MSC
Classes are defined on viability, T/C with ranges class A: < 10%; class B: ≥ 10% and < 30%; class C: ≥ 30%

# compound, group
data = [
    ("O=C(c1cc(Cc2n[nH]c(=O)c3ccccc23)ccc1F)N1CCN(C(=O)C2CC2)CC1 + CNCc1ccccc1-c1csc(C(C)Nc2nc(C)nc3cc(OC)c(OC)cc23)c1", "class C"),
    ("CC1(C)CCC(CN2CCN(c3ccc(C(=O)NS(=O)(=O)c4ccc(NCC5CCOCC5)c([N+](=O)[O-])c4)c(Oc4cnc5[nH]ccc5c4)c3)CC2)=C(c2ccc(Cl)cc2)C1 + C=CC(=O)N1CCN(c2nc(=O)n(-c3c(C)ccnc3C(C)C)c3nc(-c4c(O)cccc4F)c(F)cc23)C(C)C1", "class A"),
    ("CC1(C)CCC(CN2CCN(c3ccc(C(=O)NS(=O)(=O)c4ccc(NCC5CCOCC5)c([N+](=O)[O-])c4)c(Oc4cnc5[nH]ccc5c4)c3)CC2)=C(c2ccc(Cl)cc2)C1 + CNCc1ccccc1-c1csc(C(C)Nc2nc(C)nc3cc(OC)c(OC)cc23)c1", "class A"),
    ("COc1cc2nccc(Oc3ccc(NC(=O)C4(C(=O)Nc5ccc(F)cc5)CC4)cc3)c2cc1OC + CNCc1ccccc1-c1csc(C(C)Nc2nc(C)nc3cc(OC)c(OC)cc23)c1", "class B"),
    ("O=C(c1cc(Cc2n[nH]c(=O)c3ccccc23)ccc1F)N1CCN(C(=O)C2CC2)CC1 + COc1cc2nc(C)nc(NC(C)c3cc(N)cc(C(F)(F)F)c3)c2cc1OC1CCOC1", "class C"),
    ("CC1(C)CCC(CN2CCN(c3ccc(C(=O)NS(=O)(=O)c4ccc(NCC5CCOCC5)c([N+](=O)[O-])c4)c(Oc4cnc5[nH]ccc5c4)c3)CC2)=C(c2ccc(Cl)cc2)C1 + CC1OCC2(CCN(c3cnc(Sc4ccnc(N)c4Cl)c(N)n3)CC2)C1N", "class A"),
    ("CC1OCC2(CCN(c3cnc(Sc4ccnc(N)c4Cl)c(N)n3)CC2)C1N (centres undefined) + C=CC(=O)N1CCN(c2nc(OCC3CCCN3C)nc3c2CCN(c2cccc4cccc(C)c24)C3)CC1CC#N", "class B"),
    ("CC(C)NCC(C(=O)N1CCN(c2ncnc3c2C(C)CC3O)CC1)c1ccc(Cl)cc1 (centres undefined) + CC1OCC2(CCN(c3cnc(Sc4ccnc(N)c4Cl)c(N)n3)CC2)C1N", "class C"),
    ("COc1cc(Nc2ncc3c(n2)-c2ccc(Cl)cc2C(c2c(F)cccc2OC)=NC3)ccc1C(=O)O + CNCc1ccccc1-c1csc(C(C)Nc2nc(C)nc3cc(OC)c(OC)cc23)c1", "class B"),
    ("COC(=O)c1ccc2c(C(=Nc3ccc(N(C)C(=O)CN4CCN(C)CC4)cc3)c3ccccc3)c(O)[nH]c2c1 + C=CC(=O)N1CCN(c2nc(OCC3CCCN3C)nc3c2CCN(c2cccc4cccc(C)c24)C3)CC1CC#N", "class A"),
    ("COC(=O)c1ccc2c(C(=Nc3ccc(N(C)C(=O)CN4CCN(C)CC4)cc3)c3ccccc3)c(O)[nH]c2c1 + C=CC(=O)N1CCN(c2nc(=O)n(-c3c(C)ccnc3C(C)C)c3nc(-c4c(O)cccc4F)c(F)cc23)C(C)C1", "class A"),
    ("COc1cc2nccc(Oc3ccc(NC(=O)C4(C(=O)Nc5ccc(F)cc5)CC4)cc3)c2cc1OC + CC1OCC2(CCN(c3cnc(Sc4ccnc(N)c4Cl)c(N)n3)CC2)C1N", "class B"),
    ("CC1(C)CCC(CN2CCN(c3ccc(C(=O)NS(=O)(=O)c4ccc(NCC5CCOCC5)c([N+](=O)[O-])c4)c(Oc4cnc5[nH]ccc5c4)c3)CC2)=C(c2ccc(Cl)cc2)C1 + COc1cc2nc(C)nc(NC(C)c3cc(N)cc(C(F)(F)F)c3)c2cc1OC1CCOC1", "class A"),
    ("CC1OCC2(CCN(c3cnc(Sc4ccnc(N)c4Cl)c(N)n3)CC2)C1N (centres undefined) + COc1cc2nc(C)nc(NC(C)c3cc(N)cc(C(F)(F)F)c3)c2cc1OC1CCOC1", "class B"),
    ("CC(C)NCC(C(=O)N1CCN(c2ncnc3c2C(C)CC3O)CC1)c1ccc(Cl)cc1 (centres undefined) + C=CC(=O)N1CCN(c2nc(=O)n(-c3c(C)ccnc3C(C)C)c3nc(-c4c(O)cccc4F)c(F)cc23)C(C)C1", "class C"),
    ("Cn1nccc1Nc1nccc(-c2cc3c(s2)C(C)(C)N(CCN2CCOCC2)C3=O)n1 + CC1OCC2(CCN(c3cnc(Sc4ccnc(N)c4Cl)c(N)n3)CC2)C1N", "class A"),
    ("CCNC(=O)CC1N=C(c2ccc(Cl)cc2)c2cc(OC)ccc2-n2c(C)nnc21 (centres undefined) + C=CC(=O)N1CCN(c2nc(=O)n(-c3c(C)ccnc3C(C)C)c3nc(-c4c(O)cccc4F)c(F)cc23)C(C)C1", "class C"),
]

###

# Test system: 292921-168-R-J2-PDC KRAS tumor spheroid viability
# assay-remarks: Anticancer human tumor 292921-168-R-J2-PDC cell line growth inhibition [KRAS2];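 further: drug exposure lasted seven days after spheroids formed for three days; percent of DMSO vehicle control viability which is 100%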
# condition-parameters: second compound 0.1 µM; first compound 0.00316 µM; hits give low values; spheroids with HUVEC and MSC
Lab note: anything with viability, T/C below 80% is marked Met; values at 80% or higher are marked Not met.

# molecule, group
records = [
    ("CC(C)n1nc(-c2ccc3oc(N)nc3c2)c2c(N)ncnc21 + C=CC(=O)N1CCN(c2nc(=O)n(-c3c(C)ccnc3C(C)C)c3nc(-c4c(O)cccc4F)c(F)cc23)C(C)C1", "Met"),
    ("Cn1ncnc1[C@H]1c2n[nH]c(=O)c3cc(F)cc(c23)N[C@@H]1c1ccc(F)cc1 + C=CC(=O)N1CCN(c2nc(=O)n(-c3c(C)ccnc3C(C)C)c3nc(-c4c(O)cccc4F)c(F)cc23)C(C)C1", "Not met"),
    ("CN(C)C/C=C/C(=O)Nc1cc2c(Nc3ccc(F)c(Cl)c3)ncnc2cc1O[C@H]1CCOC1 + C=CC(=O)N1CCN(c2nc(OCC3CCCN3C)nc3c2CCN(c2cccc4cccc(C)c24)C3)CC1CC#N", "Not met"),
    ("Cn1ncnc1[C@H]1c2n[nH]c(=O)c3cc(F)cc(c23)N[C@@H]1c1ccc(F)cc1 + CNCc1ccccc1-c1csc(C(C)Nc2nc(C)nc3cc(OC)c(OC)cc23)c1", "Not met"),
    ("CC(C)n1nc(-c2ccc3oc(N)nc3c2)c2c(N)ncnc21 + COc1cc2nc(C)nc(NC(C)c3cc(N)cc(C(F)(F)F)c3)c2cc1OC1CCOC1", "Met"),
]

###

# Test system: 292921-168-R-J2-PDC KRAS tumor spheroid viability
# assay-remarks: Anticancer human tumor 292921-168-R-J2-PDC cell line growth inhibition [KRAS2]; active = viability on the fitted dose curve at most 10% of control; inactive = the rest;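 further: drug exposure lasted seven days after spheroids formed for three days; percent of DMSO vehicle control viability which is 100%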
# condition-parameters: second compound 3.16 µM; first compound 0.1 µM; spheroids with HUVEC and MSC
Labels: class 1 for active, class 0 for inactive

# molecule, group
records = [
    ("CCNC(=O)CC1N=C(c2ccc(Cl)cc2)c2cc(OC)ccc2-n2c(C)nnc21 (centres undefined) + C=CC(=O)N1CCN(c2nc(OCC3CCCN3C)nc3c2CCN(c2cccc4cccc(C)c24)C3)CC1CC#N", "class 1"),
    ("COC(=O)c1ccc2c(C(=Nc3ccc(N(C)C(=O)CN4CCN(C)CC4)cc3)c3ccccc3)c(O)[nH]c2c1 + C=CC(=O)N1CCN(c2nc(=O)n(-c3c(C)ccnc3C(C)C)c3nc(-c4c(O)cccc4F)c(F)cc23)C(C)C1", "class 0"),
    ("CC(=O)OC12COC1CC(O)C1(C)C(=O)C(O)C3=C(C)C(OC(=O)C(O)C(NC(=O)OC(C)(C)C)c4ccccc4)CC(O)(C(OC(=O)c4ccccc4)C21)C3(C)C (centres undefined) + C=CC(=O)N1CCN(c2nc(=O)n(-c3c(C)ccnc3C(C)C)c3nc(-c4c(O)cccc4F)c(F)cc23)C(C)C1", "class 0"),
    ("CC1OCC2(CCN(c3cnc(Sc4ccnc(N)c4Cl)c(N)n3)CC2)C1N (centres undefined) + C=CC(=O)N1CCN(c2nc(OCC3CCCN3C)nc3c2CCN(c2cccc4cccc(C)c24)C3)CC1CC#N", "class 1"),
    ("CC1COCCN1c1cc(-c2ccnn2C)c2ccnc(-c3ccn[nH]3)c2n1 (centres undefined) + CC1OCC2(CCN(c3cnc(Sc4ccnc(N)c4Cl)c(N)n3)CC2)C1N", "class 0"),
    ("CC(C)n1nc(-c2ccc3oc(N)nc3c2)c2c(N)ncnc21 + C=CC(=O)N1CCN(c2nc(=O)n(-c3c(C)ccnc3C(C)C)c3nc(-c4c(O)cccc4F)c(F)cc23)C(C)C1", "class 0"),
    ("CC(=O)OC12COC1CC(O)C1(C)C(=O)C(O)C3=C(C)C(OC(=O)C(O)C(NC(=O)OC(C)(C)C)c4ccccc4)CC(O)(C(OC(=O)c4ccccc4)C21)C3(C)C (centres undefined) + C=CC(=O)N1CCN(c2nc(OCC3CCCN3C)nc3c2CCN(c2cccc4cccc(C)c24)C3)CC1CC#N", "class 0"),
    ("COc1cc(Nc2ncc3c(n2)-c2ccc(Cl)cc2C(c2c(F)cccc2OC)=NC3)ccc1C(=O)O + C=CC(=O)N1CCN(c2nc(OCC3CCCN3C)nc3c2CCN(c2cccc4cccc(C)c24)C3)CC1CC#N", "class 1"),
    ("CC(C)NCC(C(=O)N1CCN(c2ncnc3c2C(C)CC3O)CC1)c1ccc(Cl)cc1 (centres undefined) + CNCc1ccccc1-c1csc(C(C)Nc2nc(C)nc3cc(OC)c(OC)cc23)c1", "class 1"),
    ("Cn1ncnc1[C@H]1c2n[nH]c(=O)c3cc(F)cc(c23)N[C@@H]1c1ccc(F)cc1 + C=CC(=O)N1CCN(c2nc(OCC3CCCN3C)nc3c2CCN(c2cccc4cccc(C)c24)C3)CC1CC#N", "class 1"),
    ("CC1COCCN1c1cc(-c2ccnn2C)c2ccnc(-c3ccn[nH]3)c2n1 (centres undefined) + COc1cc2nc(C)nc(NC(C)c3cc(N)cc(C(F)(F)F)c3)c2cc1OC1CCOC1", "class 0"),
    ("Cn1nccc1Nc1nccc(-c2cc3c(s2)C(C)(C)N(CCN2CCOCC2)C3=O)n1 + C=CC(=O)N1CCN(c2nc(=O)n(-c3c(C)ccnc3C(C)C)c3nc(-c4c(O)cccc4F)c(F)cc23)C(C)C1", "class 0"),
    ("CC(C)n1nc(-c2ccc3oc(N)nc3c2)c2c(N)ncnc21 + COc1cc2nc(C)nc(NC(C)c3cc(N)cc(C(F)(F)F)c3)c2cc1OC1CCOC1", "class 0"),
    ("O=C(c1cc(Cc2n[nH]c(=O)c3ccccc23)ccc1F)N1CCN(C(=O)C2CC2)CC1 + C=CC(=O)N1CCN(c2nc(OCC3CCCN3C)nc3c2CCN(c2cccc4cccc(C)c24)C3)CC1CC#N", "class 1"),
    ("CC1(C)CCC(CN2CCN(c3ccc(C(=O)NS(=O)(=O)c4ccc(NCC5CCOCC5)c([N+](=O)[O-])c4)c(Oc4cnc5[nH]ccc5c4)c3)CC2)=C(c2ccc(Cl)cc2)C1 + C=CC(=O)N1CCN(c2nc(OCC3CCCN3C)nc3c2CCN(c2cccc4cccc(C)c24)C3)CC1CC#N", "class 1"),
    ("CC1COCCN1c1cc(-c2ccnn2C)c2ccnc(-c3ccn[nH]3)c2n1 (centres undefined) + C=CC(=O)N1CCN(c2nc(OCC3CCCN3C)nc3c2CCN(c2cccc4cccc(C)c24)C3)CC1CC#N", "class 1"),
    ("CC(=O)OC12COC1CC(O)C1(C)C(=O)C(O)C3=C(C)C(OC(=O)C(O)C(NC(=O)OC(C)(C)C)c4ccccc4)CC(O)(C(OC(=O)c4ccccc4)C21)C3(C)C (centres undefined) + COc1cc2nc(C)nc(NC(C)c3cc(N)cc(C(F)(F)F)c3)c2cc1OC1CCOC1", "class 0"),
    ("COC(=O)c1ccc2c(C(=Nc3ccc(N(C)C(=O)CN4CCN(C)CC4)cc3)c3ccccc3)c(O)[nH]c2c1 + C=CC(=O)N1CCN(c2nc(OCC3CCCN3C)nc3c2CCN(c2cccc4cccc(C)c24)C3)CC1CC#N", "class 1"),
    ("COc1cc2nccc(Oc3ccc(NC(=O)C4(C(=O)Nc5ccc(F)cc5)CC4)cc3)c2cc1OC + C=CC(=O)N1CCN(c2nc(=O)n(-c3c(C)ccnc3C(C)C)c3nc(-c4c(O)cccc4F)c(F)cc23)C(C)C1", "class 0"),
]
